Entries and their pKa
Assay remarks: pH dependence of fluorescence emission
Format: physicochemical
Condition description: from pH dependence of fluorescence

- Compound smiles: "O=C(NCCOCCOCCOCCOCCOCCOCCCCCCCl)c1ccc(C(=O)[O-])c(-c2c3ccc(=[N+]4CCN(CCCCS(=O)(=O)O)CC4)cc-3oc3cc(N4CCN(CCCCS(=O)(=O)O)CC4)ccc23)c1"
  pKa: "~6.1"
- Compound smiles: "CN1CCN(c2ccc3c(-c4cc(C(=O)NCCOCCOCCOCCOCCOCCOCCCCCCCl)ccc4C(=O)[O-])c4ccc(=[N+]5CCN(C)CC5)cc-4oc3c2)CC1"
  pKa: "~5.84"
